molecular target: HLA-A*1101 (human)
measurement-name: binding affinity ratio (IC50 of standard peptide / IC50 of test peptide)
Numbers only.

Known binding affinity ratio (IC50 of standard peptide / IC50 of test peptide) results, listed for orientation:
| binder | endpoint-result |
| --- | --- |
| TSERSQPRGR (modifications not checked) [… (HCV polyprotein position 52, 10-mer)] | 0.0001 |
| VAYQATVCAR (modifications not checked) [… (HCV polyprotein position 1592, 10-mer)] | 0.0038 |
| TGLTHIDAH (modifications not checked) [… (HCV polyprotein position 1568, 9-mer)] | 0.0001 |

Here is another binder to look at.
Summary for this binder, TSMLTDPSH (modifications not checked) [… (HCV polyprotein position 2177, 9-mer)] : binding affinity ratio (IC50 of standard peptide / IC50 of test peptide) is 0.0001
